Quick reference: viability of the listed items.
- protocol-description: drug combination growth inhibition, ovarian cancer – cell-based, oncology-focused library, rucaparib conditional, profiling panel (AID 1508598)
- details: patient-derived ovarian cancer cells, CellTiter-Glo viability, 144 h; at 1.25 µM; OCI-P5x cells; with rucaparib 20 µM; stronger effect = lower value; 100% = cells with rucaparib alone
Where a SMILES comes first, the peptide text is derived from it. The star is where a group is joined. Cbz = O=C(OCc1ccccc1)*; CH2F = FC*
Give just the numeric value; % need not be written.

molecule	uom	viability
C=CS(=O)(=O)NC1CCN(C(=O)CNc2cc(I)c(Cl)cc2OC)CC1	%	96.2
CN(CC(=O)N(Cc1ccc(C2CCCCC2)cc1)c1ccc(C(=O)O)cc1)S(=O)(=O)c1c(F)c(F)c(F)c(F)c1F	%	8.63
Cc1[nH]c(C=C2C(=O)Nc3ccc(S(=O)(=O)Cc4c(Cl)cccc4Cl)cc32)c(C)c1C(=O)N1CCC[C@@H]1CN1CCCC1	%	90.6
CCCc1ccc(OCC(=O)N(Cc2nc(-c3cccnc3)no2)C(C)C)cc1	%	103
Nc1nc(F)nc2c1ncn2[C@H]1O[C@H](CO)[C@@H](O)[C@@H]1O	%	110
COc1cc(Br)c(Nc2nc(-c3c(C)nc4ncccn34)cs2)c(Br)c1	%	78.1
CO[C@H]1/C=C\C=C(\C)C(=O)NC2=CC(=O)C(NCCN(C)C)=C(C[C@@H](C)C[C@H](OC)[C@H](O)[C@@H](C)/C=C(\C)[C@@H]1OC(N)=O)C2=O	%	6.01
COC(=O)C[C@H](NC(=O)[C@H](C)NC(=O)[C@@H](NC(=O)OCc1ccccc1)C(C)C)C(=O)CF (Cbz-Val-Ala-Asp(OMe)-CH2F)	%	103

So, Cc1ccc(NC(=O)c2ccc(CN3CCN(C)CC3)cc2)cc1Nc1nc(-c2cccnc2)cs1 ? Its viability was 91.9

So, C[C@]12CC[C@H]3c4ccc(O)cc4CC[C@H]3[C@@H]1CC[C@H]2O ? Its viability was 110

###

- protocol-description: MELAS cybrid and Rieske KO viability enhancers – cell-based, MELAS cybrids, Rieske KO mouse fibroblasts, CellTiter-Glo, primary screen (AID 1508586);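 also: z relative to plate mean and SD of compound and empty wells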
- details: Rieske KO mouse fibroblast survival, low glucose, CellTiter-Glo 72 h
test-readout: z-score
Give a plain numeric answer without units written out.

Worked cases, z-score given:
compound	z-score
Cc1ccc2c(CC(=O)N3CC(=O)N(CC(C)C)CC(OCc4ccccn4)C3)cc(=O)oc2c1 (centres undefined)	0.0342
COCc1ccc(C(=O)N2CCc3c(cc(-c4ccncc4)c(=O)n3CCN3CCCCC3)C2)o1	0.626
Fc1ccccc1-c1cc(NCc2ccncc2)n2nccc2n1	-0.13
CC(NC(CCc1ccccc1)C(=O)O)C(=O)N1CCCC1C(=O)O (centres undefined)	0.0621
CN(C)CCC=C1c2ccccc2COc2ccc(CC(=O)O)cc21	0.569

So, O=C(NCCN1CCOCC1)c1cc(-c2ccccc2)cc(S(=O)(=O)N2CCSCC2)c1 ? Its z-score was -0.421

So, CCNC(=O)CCCC=CCC1C(O)CC(O)C1C=CC(O)CCc1ccccc1 (centres undefined) ? Its z-score was -0.137

So, Cc1ccc(-c2cc(C(=O)N(C)CCc3cnn(C)c3)cc(S(=O)(=O)N3CCOCC3)c2)s1 ? Its z-score was -0.0313

So, CCC(=O)O[C@@]1(C(=O)CCl)C(C)C[C@H]2[C@@H]3CC(F)C4=CC(=O)C=C[C@]4(C)[C@]3(F)C(O)C[C@@]21C (some centres undefined) ? Its z-score was -0.183

So, CNC1CN(c2ccc3c(=O)c(C(=O)O)cn(-c4nccs4)c3n2)CC1OC (centres undefined) ? Its z-score was -1.95

###

- protocol-description: viability loss with induced miR-34 in A549 – imaging, A549 dox-inducible miR-34, nuclei and caspase counts, primary screen (AID 1347080)
- details: A549 miR-34 inducible, Hoechst nuclei count, 48 h; stronger effect = lower value; cell number ratio, induced over uninduced
Doc: threshold 0.9 (exclusive). Items with fold change beneath it return Condition met; others return Condition not met.

The examples below pair each entry with its known result.
molecule	assigned-category
O=C(O)c1ccc(-c2ccc(F)cc2)cc1	Condition not met
COc1ccc(C(=O)O)cc1	Condition not met
Nc1cccc(-c2cccc(OCc3ccccc3)c2)n1	Condition met

Query molecule follows.
Prompt line: Does the reported fold change of the following molecule sit strictly below 0.9? CC(=O)C1CC[C@H]2[C@@H]3CCC4=CC(=O)CC[C@]4(C)[C@@H]3CC[C@]12C (stereo partly specified)
Response line: Condition met

###

- System: Hepatitis C virus NS3 helicase
- protocol-description: blockers of NS3h binding to ssDNA – biochemical, fluorescence polarization, LOPAC1280 library, primary screen (AID 687035)
- details: Purified HCV NS3 helicase, Cy5-dT15 ssDNA binding fluorescence polarization; stronger effect = higher value; concentration not given here
Quick reference: inhibition of the listed items.
Give just the numeric value; % need not be written.

compound	tested-system	inhibition / %
N#C/C(=C\c1ccc(O)c(O)c1)C(=O)NCCCNC(=O)/C(C#N)=C/c1ccc(O)c(O)c1	Hepatitis C virus NS3 helicase	37
Cc1cccc(C)c1OCC(N)C(C)C (stereo unspecified)	Hepatitis C virus NS3 helicase	-3
C=CC1(C)CC(=O)C2(O)C(C)(O1)C(OC(C)=O)C(O)C1C(C)(C)CCC(O)C12C (stereo unspecified)	Hepatitis C virus NS3 helicase	0
N[C@@H](Cc1ccc(F)cc1)C(=O)O	Hepatitis C virus NS3 helicase	-1
CC(C)C[C@H](NC(=O)C1OC1C(=O)O)C(=O)NCCCCN=C(N)N (stereo partly specified)	Hepatitis C virus NS3 helicase	0

Now, please, on to the next compound.
So, NC1(C(=O)O)CCc2cc(C(=O)O)ccc21 (stereo unspecified) ? Its inhibition was -1

###

- protocol-description: galactose survival enhancers in mitochondrial complex I cybrids – cell-based, galactose medium, ATP luminescence, primary screen (AID 1645843);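 also: positive z means more ATP and so rescue of galactose-driven cybrid death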
- details: complex I mutant cybrid cells, 72 h
The source made the active and inactive calls.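 The calls were made as follows: active = z-score of at least 1.8 in each of two replicates, scored against plate mean and spread of sample wells; inactive = the rest.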
A correct response names exactly one class from active, inactive

molecule	assigned-category
CC(C)Oc1ccc(Cl)cc1-c1nnc2ccccn12	inactive
Cc1nc(N=Nc2ccc(S(=O)(=O)O)cc2S(=O)(=O)O)c(COP(=O)(O)O)c(C=O)c1O	inactive
CN(C)C(=O)/N=N/C(=O)N(C)C	inactive

Prompt line: Hi team, can someone confirm the assay call for Cc1nn(C)cc1-c1ccnc(N2CCCN(c3ccccc3)CC2)n1 ?
Response line: active

Prompt line: Hi team, can someone confirm the assay call for CC(=O)SC1CC2=CC(=O)CC[C@]2(C)C2CC[C@@]3(C)C(CC[C@@]34CCC(=O)O4)C12 (stereo partly specified) ?
Response line: inactive

Prompt line: Hi team, can someone confirm the assay call for CC(=O)NC(CCCN=C(N)N)C(=O)O (stereo unspecified) ?
Response line: inactive

###

- protocol-description: CRL1545 cell growth, single agent and combined, cisplatin and BGB IC20 combos (AID 1671464);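 also: cells exposed to compound for 96 hours before readout; 0% = vehicle DMSO and 100% = high DMSO killing control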
- details: CRL1545 osteosarcoma cells, single agent, at 5 µM, stronger effect = higher value
Mark met for reported inhibition of 20% or greater; mark not met for anything smaller.

The examples below pair each entry with its known result.
compound	assigned-category
COc1cccc2c1C(=O)c1c(O)c3c(c(O)c1C2=O)CC(O)(C(=O)CO)CC3OC1CC(N)C(OC2CCCCO2)C(C)O1 (stereo not given)	met
CCC(C)C(=O)OC1CC(C)C=C2C=CC(C)C(CCC3CC(O)CC(=O)O3)C21 (stereo not given)	not met
C#CCC(CCCCCC)C(=O)O (stereo not given)	not met
O=C(CCCCCCC(=O)Nc1ccc(I)cc1)NO	met

Prompt line: I'd appreciate it if you could say whether COc1ccc(-c2nc(-c3cc(C(F)(F)F)cc(C(F)(F)F)c3)n(Cc3ccc(C(N)=O)cc3)c2-c2ccc(OC)cc2)cc1 has inhibition at least equal to 20%.
Response line: not met

###

- protocol-description: drug combination growth inhibition, ovarian cancer – cell-based, oncology-focused library, rucaparib conditional, profiling panel (AID 1508598)
- details: patient-derived ovarian cancer cells, CellTiter-Glo viability, 144 h; at 1.25 µM; OCI-C5x cells; with rucaparib 10 µM; stronger effect = lower value; 100% = cells with rucaparib alone
test-readout: viability (%)
Give just the numeric value; % need not be written.

Worked cases, viability given:
molecule	viability [%]
C[C@H]1C[C@H]2[C@@H]3CCC4=CC(=O)C=C[C@]4(C)[C@@H]3C(=O)C[C@]2(C)[C@]1(O)C(=O)CO	125
Cc1cc(NC(=O)c2cccc(NC(=O)/C=C/CN(C)C)c2)ccc1Nc1nccc(-c2cccnc2)n1	163
CC#C[C@@]1(O)CC[C@H]2[C@@H]3CCC4=CC(=O)CCC4=C3[C@H](c3ccc(N(C)C)cc3)C[C@@]21C	121
CC[C@]1(O)C[C@@H]2CN(CCc3c([nH]c4ccccc34)[C@@](C(=O)OC)(c3cc4c(cc3OC)N(C=O)[C@@H]3C45CCN4CC=C[C@](CC)([C@H]45)[C@H](OC(C)=O)[C@]3(O)C(=O)OC)C2)C1 (stereo partly drawn)	34.8
Cc1cc(C)c(S(=O)(=O)n2cc(C)cc2C)c(C)c1	113

So, CCOC(=O)c1[nH]c2cc(Cl)ccc2c1C(C(=O)NC(C)(C)C)N(C=O)Cc1ccc(Cl)cc1 (stereo not drawn) ? Its viability was 111

So, COc1cccc(-c2cc(F)ccc2[C@H]2Cc3nc(N)nc(C)c3C(=O)N2)n1 ? Its viability was 10.2

So, CCC1=CC2CN(C1)Cc1c([nH]c3ccccc13)[C@@](C(=O)OC)(c1cc3c(cc1OC)N(C)[C@H]1[C@@](O)(C(=O)OC)[C@H](OC(C)=O)[C@]4(CC)C=CCN5CC[C@@]31[C@H]54)C2 (stereo partly drawn) ? Its viability was 39.7
